Source listed as patent US4791139A.

Tested on: Tetranychus urticae (spider mites - ova)
Assay: Contact test, spider mites - ova (TUe), French bean leaf
Type: in vivo
Settings: 144 h, 500 ppm, 6 days, read-out: TUE grading of mortality
Recorded Endpoint: mortality at 500 ppm

Here is how some compounds turned out for mortality at 500 ppm.
>  <Compound>
Fc1ccc(C=CC=C(c2ccc(OC(F)(F)F)cc2)C(F)(F)Cl)cc1Oc1ccccc1 [Compound 76]

>  <mortality at 500 ppm>
< 50%

$$$$
>  <Compound>
CCOc1ccc(/C(=C\C=Cc2ccc(F)c(Oc3ccccc3)c2)C(F)(F)F)cc1 [Compound 12]

>  <mortality at 500 ppm>
< 50%

$$$$
>  <Compound>
CCOc1c(F)cc(C(CCCc2cccc(Oc3ccccc3)c2)C(F)(F)F)cc1F (racemic) [Compound 57]

>  <mortality at 500 ppm>
80 to 100%

$$$$
>  <Compound>
CCOc1ccc(C(CC=Cc2cccc(Oc3ccccc3)n2)C(F)(F)F)cc1 (centres unmarked) [Compound 99]

>  <mortality at 500 ppm>
< 50%

$$$$
>  <Compound>
CCOc1c(F)cc(C(CCCc2ccc(F)c(Oc3ccccc3)c2)C(F)(F)F)cc1F (racemic) [Compound 64]

>  <mortality at 500 ppm>
80 to 100%

$$$$
>  <Compound>
CC1(C)Oc2ccc(C(CCCc3cccc(Oc4ccccc4)c3)C(F)(F)F)cc2O1 (centres unmarked) [Compound 58]

>  <mortality at 500 ppm>
80 to 100%

$$$$
>  <Compound>
CCOc1ccc(C(CCCc2c(F)c(F)c(F)c(F)c2F)C(F)(F)F)cc1 (racemic) [Compound 43]

>  <mortality at 500 ppm>
< 50%

$$$$

# ---- query compound ----
**Q:** Identify measured mortality at 500 ppm associated with CCOc1ccc(C(CCCc2cccc(Oc3ccccc3)c2)C(F)(F)F)cc1F (racemic) [Compound 56]
**A:** 80 to 100%

====

Listing of recorded mortality at 250 ppm by entry.
System: Tetranychus urticae (spider mites - ova)
Assay: Contact test, spider mites - ova (TUe), French bean leaf
Assay type: in vivo
Conditions: 144 h, 250 ppm, 6 days, read-out: TUE grading of mortality

// below: answered molecules
>  <Molecule>
FC(F)(F)C(=CCCc1cccc(Oc2ccccc2)c1)c1ccc2c(c1)CCC2

>  <Tested Target>
Tetranychus urticae (spider mites - ova)

>  <Recorded Endpoint>
mortality at 250 ppm

>  <Result>
< 50%

$$$$
>  <Molecule>
CCOc1ccc(C(CC=Cc2cccc(Oc3ccccc3)c2)C(F)(F)F)cc1 (centres unmarked)

>  <Tested Target>
Tetranychus urticae (spider mites - ova)

>  <Recorded Endpoint>
mortality at 250 ppm

>  <Result>
< 50%

$$$$
>  <Molecule>
CCOc1ccc(C(C/C=C/c2cccc(Oc3ccccc3)c2)C(F)(F)F)cc1 (centres unmarked)

>  <Tested Target>
Tetranychus urticae (spider mites - ova)

>  <Recorded Endpoint>
mortality at 250 ppm

>  <Result>
< 50%

$$$$
>  <Molecule>
CCOc1ccc(C(C/C=C\c2cccc(Oc3ccccc3)c2)C(F)(F)F)cc1 (centres unmarked)

>  <Tested Target>
Tetranychus urticae (spider mites - ova)

>  <Recorded Endpoint>
mortality at 250 ppm

>  <Result>
< 50%

$$$$
>  <Molecule>
CCOc1ccc(/C(=C\C=C\c2ccc(F)c(Oc3ccccc3)c2)C(F)(F)F)cc1

>  <Tested Target>
Tetranychus urticae (spider mites - ova)

>  <Recorded Endpoint>
mortality at 250 ppm

>  <Result>
< 50%

$$$$

Let us move to another entry and its mortality at 250 ppm.
**Q:** Dear colleague, please send me the reported mortality at 250 ppm for CCOc1ccc(/C(=C\C=C/c2ccc(F)c(Oc3ccccc3)c2)C(F)(F)F)cc1 when you can.
**A:** < 50%
